Parameter: EC50, pseudovirus neutralization. Scope: all listed entries.
# system.name: BK virus VP1 protein, genotype IV (BK virus)
# test.method.notes: cell-based or functional assay

binder: 6E1 (antibody, V domains shown) VH: EVQLLESGGGLVQPGGSLRLSCAASGFTFSSFAMSWVRQAPGKGLEWVSGISGSGGSTYYADSVKGRFTISRDNSKNTLYLQMNSLRAEDTAIYYCAKDKRNWNYGIDSFDFWGQGTMVTVSS VL: DIQMTQSPSSLSASVGGRVTITCRTSQSISGYLNWYQQKAGKAPKLLIYATSNLQSGVPSRFTGSGSGTDFTLTISSLQPEDFAAYYCHQSHSPPFTFGPGTKVAFK
censoring.operator: =
EC50, pseudovirus neutralization, nM: 0.0095
--
binder: 1E2 (antibody, V domains shown) VH: QVQLVESGGDLVKPGGSLRLSCVASGFTFSDYYMNWIRLPPGKGLEWVSYIDSSAGAIYYADSVRGRFTVSRDDAKNSLFLHMNSLRADDTAVYYCARERRDGHKIFDCWGPGTLVTVSS VL: DIVMTQSPDSLAVSLGERATINCKSSQNILYSSNNKNYLAWYQQKAGQPPKLLIFWSSTRESGVPDRFSGSGSGTDFTLTINSLQAEDVAVYYCQQYYSSPYNFGRGTTLEIK
censoring.operator: =
EC50, pseudovirus neutralization, nM: 0.143
--
binder: 11D12 (antibody, V domains shown) VH: EVQLVESGGGLVQPGGSLRLSCAASGFTFSSYEMNWVRQAPGKGLEWVSYISSGGSSIKYADSVRGRFTFSRDNAENSVFLQMNSLRGEDTAVYYCARVGGSYYYSYAMDVWGQGTAVTVSS VL: DIQLTQSPSFLSASVGDRVTITCWASQDISSYLAWYQQKPGKAPKLLIYAASTLQSGVPSRFSGSGSGTEFTLTISSLQPEDFATYYCQQPNNYPFSFGPGTKVDVK
censoring.operator: >
EC50, pseudovirus neutralization, nM: 6.67
--
binder: 14F5 (antibody, V domains shown) VH: EVQLLESGGGLVQPGGSLRLSCAVSGFTFSSFAMSWVRQAPGKGLEWVSGISASGGTTNYADSVKGRFTISRDNSKNTLYLQMSSLRAEDTAEYYCAKDRFLEWVEGFDPWGQGILVTVSP VL: DIQMTQSPSSLSASVGDRVTITCRASQSIGRFLIWYQQKPGKAPKLLLYATSSLQSGVPARFTGSGSGTDFTLTIGSLQPEDFATYYCQQSYITPLTFGGGTKVEIK
censoring.operator: =
EC50, pseudovirus neutralization, nM: 0.0671
